I'd appreciate it if you could supply A1V1 activation, % of agonist value values for the items below.
- Tested on: TRPA1V1
- ASSAY NAME: Intracellular calcium (Fluo-4, FLIPR) activation of TRPA1V1 cells (co-expressing TRPA1 and TRPV1) by GRAS compounds
- Format: cell-based, human
- SETUP CONDITIONS: Table 1(c); 1 mM; relative to AITC 30 μM
Give bare numbers, in %.

Solved entries (count: 5):
Param item = CCCC(CCOC(C)=O)SC (stereo not shown) [3-(Methylthio)hexyl acetate] ; retrieve measured A1V1 activation, % of agonist value.
87.6

Param item = C=C(C)CCCC(C)CCOC(C)=O (stereo not shown) [Rhodinyl acetate] ; retrieve measured A1V1 activation, % of agonist value.
89.69

Param item = `CC(=O)c1ccc2ccccc2c1` ; retrieve measured A1V1 activation, % of agonist value.
69.41

Param item = CC/C=C\CCOC(=O)C/C=C\CC [cis-3-Hexenyl cis-3-hexenoate] ; retrieve measured A1V1 activation, % of agonist value.
97.4

Param item = CCCCC/C=C/C=O [trans-2-Octanal] ; retrieve measured A1V1 activation, % of agonist value.
115

Please state A1V1 activation, % of agonist value for every compound in the list that follows.
1. CC(C)=CCC[C@](C)(O)C1CC=C(C)CC1 (stereo partly shown)
2. CC(=O)Cc1ccco1
3. Cc1c[nH]c2ccccc12
4. Cc1ccccc1OC(=O)C(C)C [O-Tolyl isobutyrate]
5. CCCCCC/C=C/C=C/C=O [Trans,trans-2,4-undecadien-1-al]
6. CC/C=C\CC/C=C/C(OCC)OCC [2,6-Nonadiene, 1,1-diethoxy-, (E,Z)-]
7. O=CC1=CCCCC1

73.53
59.5
102.9
57.76
85.4
74.31
48.37

----------
I'd appreciate it if you could supply activation at 1000 µM values for the items below.
- EXPERIMENTAL TARGET: human TRPA1 (Homo sapiens, UniProt O75762, K186N/R3C/R58T)
- Construct: expressed in transfected cells; pcDNA3 control cells
- Sequence (O75762 whole entry R3C/R58T/K186N): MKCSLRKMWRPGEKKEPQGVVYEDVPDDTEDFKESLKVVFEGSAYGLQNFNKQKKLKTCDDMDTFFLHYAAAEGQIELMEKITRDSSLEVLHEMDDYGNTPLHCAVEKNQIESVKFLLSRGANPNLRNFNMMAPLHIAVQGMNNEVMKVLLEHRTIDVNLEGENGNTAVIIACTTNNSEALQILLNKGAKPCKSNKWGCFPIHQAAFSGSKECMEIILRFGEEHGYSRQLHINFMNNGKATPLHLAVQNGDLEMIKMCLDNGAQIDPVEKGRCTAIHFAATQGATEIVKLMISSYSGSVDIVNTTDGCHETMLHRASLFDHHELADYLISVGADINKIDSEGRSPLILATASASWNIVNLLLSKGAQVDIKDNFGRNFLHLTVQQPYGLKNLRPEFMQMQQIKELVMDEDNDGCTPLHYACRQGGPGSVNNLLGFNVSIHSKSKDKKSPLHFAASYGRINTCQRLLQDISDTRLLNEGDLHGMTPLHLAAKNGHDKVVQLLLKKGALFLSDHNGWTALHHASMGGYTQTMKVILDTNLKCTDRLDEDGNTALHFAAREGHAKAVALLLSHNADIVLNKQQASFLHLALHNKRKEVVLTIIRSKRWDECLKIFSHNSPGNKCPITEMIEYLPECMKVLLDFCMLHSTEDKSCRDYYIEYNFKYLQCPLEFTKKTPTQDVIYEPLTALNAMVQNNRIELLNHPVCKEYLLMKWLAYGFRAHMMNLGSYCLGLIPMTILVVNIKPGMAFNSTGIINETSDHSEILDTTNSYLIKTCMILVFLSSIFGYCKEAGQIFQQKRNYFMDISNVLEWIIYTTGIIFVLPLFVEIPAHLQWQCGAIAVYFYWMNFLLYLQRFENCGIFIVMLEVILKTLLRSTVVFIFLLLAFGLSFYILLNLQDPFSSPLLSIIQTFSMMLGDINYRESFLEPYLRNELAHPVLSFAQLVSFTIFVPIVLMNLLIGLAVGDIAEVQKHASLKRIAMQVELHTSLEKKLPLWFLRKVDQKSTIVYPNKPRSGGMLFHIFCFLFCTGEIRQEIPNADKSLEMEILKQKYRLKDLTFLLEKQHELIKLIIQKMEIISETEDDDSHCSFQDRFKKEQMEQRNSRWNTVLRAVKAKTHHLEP
- ASSAY NAME: Intracellular calcium (Fluo-4, FLIPR) activation of TRPA1 cells by GRAS compounds;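 also: TRPA1-expressing cells, fluorescence read on a FLIPR Tetra (ex 488 nm, em 514 nm) every 2 s for 10 min after compound addition, baseline subtracted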
- Type: cell-based
- SETUP CONDITIONS: Table 1(e); 1 mM; relative to AITC 30 μM; read-out: A1 activation, % of agonist value
Give bare numbers, in %.

Solved entries (count: 3):
Param item = CCCC(=O)OCc1ccc(OC)cc1 [p-Methoxybenzyl butyrate] ; retrieve measured activation at 1000 µM.
34

Param item = `CSCCCN=C=S` ; retrieve measured activation at 1000 µM.
81.6

Param item = C=C(C)C1CCC(C)C(=O)C1 (centres unmarked) [p-Menth-8-en-2-one] ; retrieve measured activation at 1000 µM.
39.9

Please state activation at 1000 µM for every compound in the list that follows.
1. CCCCCCOC(=O)CCC [Hexyl butyrate]
2. CC(C)CCN=C=S [3-Methylbutyl isothiocyanate]
3. COc1ccc(/C=C/C=O)cc1 [Trans-p-methoxy cinnamaldehyde]
4. COC(C=C(C)CCC=C(C)C)OC [Citral dimethyl acetal]
5. CCCCC/C=C\C/C=C\CCCCCCCC(=O)OC [Methyl linoleate]

43.2
61.1
58.8
102
31

----------
- Tested on: TRPA1V1
- ASSAY NAME: Intracellular calcium (Fluo-4, FLIPR) activation of TRPA1V1 cells (co-expressing TRPA1 and TRPV1) by GRAS compounds;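 also: HEK293 cells co-expressing TRPA1 and TRPV1, fluorescence read at 488/514 nm after baseline subtraction, recorded every 2 s over 10 min, ionomycin 10 µM and buffer as controls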
- Type: cell-based, human
- SETUP CONDITIONS: Table 1(c); 1 mM; relative to AITC 30 μM
VALUE TYPE: A1V1 activation, % of agonist value (%)
Numbers only, in %.

Solved entries (count: 8):
Param item = `Cc1ccc(C=O)c(C)c1` ; retrieve measured A1V1 activation, % of agonist value.
102.8

Param item = `C=C(C)[C@@H]1CC=C(C=O)CC1` ; retrieve measured A1V1 activation, % of agonist value.
138.2

Param item = `O=CC=Cc1ccco1` ; retrieve measured A1V1 activation, % of agonist value.
66.5

Param item = `CCCCCCCCCC(=O)O` ; retrieve measured A1V1 activation, % of agonist value.
73.45

Param item = `OCC=Cc1ccccc1` ; retrieve measured A1V1 activation, % of agonist value.
79.4

Param item = `CC(=O)c1cc(C)oc1C` ; retrieve measured A1V1 activation, % of agonist value.
61

Param item = `CC(C)=CCCC(C)=CC=O` ; retrieve measured A1V1 activation, % of agonist value.
132.7

Param item = CC1=CC(C)C(C=O)CC1 (stereo not shown) ; retrieve measured A1V1 activation, % of agonist value.
36.46

Please state A1V1 activation, % of agonist value for every compound in the list that follows.
1. CCCCCCCC/C=C/C=O
2. Cc1ccc(CO)o1
3. CCCCCCCCCO
4. CC(=O)OCc1ccccc1C [O-Methylbenzyl acetate]
5. CCCC=C1OC(=O)c2ccccc21 [3-Butylidenephthalide]
6. CC/C=C/CC/C=C/C=O [(E,E)-2,6-Nonadienal]
7. COC(=O)c1ccc(O)cc1
8. CCOC(=O)C(Cc1ccccc1)C(C)=O (stereo not shown) [Ethyl 2-benzylacetoacetate]

[48.8, 76.02, 69.4, 77.24, 115.4, 89.61, 66.33, 115]
